# Organism: Sus scrofa
# test_method_notes: Inhibition of pig brain topoisomerase 1-mediated supercoiled DNA relaxation after 20 mins by agarose gel electrophoresis analysis
Active and inactive are the calls of the source. No cut-off for these calls is given here.
Labels: active, inactive

- structure_as_smiles: "FC(F)(F)c1ccc2[nH]c3ccccc3c2c1"
  group: "inactive"
- structure_as_smiles: "FC(F)(F)c1ccc2c(c1)[nH]c1ccccc12"
  group: "inactive"
- structure_as_smiles: "COc1ccc2c(c1)[nH]c1c(C)nccc12"
  group: "active"
- structure_as_smiles: "CC(C)(C)c1ccc2c(c1)[nH]c1ccccc12"
  group: "inactive"

---

# Species on record: Sus scrofa
# test_method_notes: Inhibition of pig brain topoisomerase 2-mediated supercoiled DNA relaxation after 20 mins by agarose gel electrophoresis analysis
Calls of active or inactive are those of the source. The calls are words filed in the database; no cut-off is given here.
Outcomes: active, inactive

- structure_as_smiles: "FC(F)(F)c1ccc2c(c1)[nH]c1ccccc12"
  group: "inactive"
- structure_as_smiles: "COc1ccc2c(c1)[nH]c1c(C)nccc12"
  group: "active"
- structure_as_smiles: "FC(F)(F)c1ccc2[nH]c3ccccc3c2c1"
  group: "inactive"
- structure_as_smiles: "CC(C)(C)c1ccc2c(c1)[nH]c1ccccc12"
  group: "inactive"
